Where do the numbers come from? From ChEMBL document CHEMBL4689842.

Total Cell Count listing for selected molecules.
- Test system: HEK-293T
- testName: Multiplex assay against HEK293T
- Type: toxicity, cell-based
- conditionParameters: human, 48 h, 1 µM, compound concentration 1 uM, replicate 1
Answer using only a numeral; do not append any unit.

These recorded examples may help you get a feel for the data.
[
  {
    "molecule": "COc1ccc(NS(=O)(=O)c2sc3ccc(Cl)cc3c2C)cc1N1CCNCC1.Cl",
    "Total Cell Count": 493
  },
  {
    "molecule": "CCC(=O)O[C@]1(C(=O)SCF)[C@H](C)C[C@H]2[C@@H]3C[C@H](F)C4=CC(=O)C=C[C@]4(C)[C@@]3(F)[C@@H](O)C[C@@]21C [FLUTICASONE PROPIONATE]",
    "Total Cell Count": 348
  },
  {
    "molecule": "O=C(O)c1ccc2cc(-c3ccc(O)c(C45CC6CC(CC(C6)C4)C5)c3)ccc2c1",
    "Total Cell Count": 565
  }
]

Task: Looking for the measured Total Cell Count of Cc1nc(Cc2cccc(C(F)(F)F)c2)sc1-c1ccc(C(N)=O)nc1 [TP-024n] , can you help?
Output: 594

Task: Another: CNc1oc(-c2cccc3ccccc23)nc1C#N
Output: 470

Task: Another: Cc1cc2c(cc1N1C(=O)c3cccc4c(CCCO)ccc(c34)C1=O)n(C)c(=O)n2C
Output: 321

Task: Another: CCCn1c(=O)c2[nH]c(C34CC5CC(CC3C5)C4)nc2n(CCC)c1=O
Output: 227

Task: Another: Cl.Cl.Nc1ncnc2c1c(-c1cccc(OCc3ccccc3)c1)cn2[C@H]1C[C@@H](CN2CCC2)C1
Output: 250

====

- Tested on: HEK-293T
- testName: Multiplex assay against HEK293T
- Assay type: toxicity, cell-based
- conditionParameters: human, 48 h, 10 µM, compound concentration 10 uM, replicate 1
metric: Population Mitochondria Different-Phenotype (%)
Respond with the bare value in %.

These recorded examples may help you get a feel for the data.
[
  {
    "compound": "CC(C)N1CCC(C)(C)c2cc(C#Cc3ccc(C(=O)O)cc3)ccc21",
    "systemTested": "HEK-293T",
    "readoutUnit": "%",
    "reportedValue": 12
  },
  {
    "compound": "Nc1nc2c(c(N3CCNCC3)n1)CCC1=C2[C@@H]2CCCC[C@@H]2O1",
    "systemTested": "HEK-293T",
    "readoutUnit": "%",
    "reportedValue": 93
  },
  {
    "compound": "O=C(O)c1ccc2cc(-c3ccc(O)c(C45CC6CC(CC(C6)C4)C5)c3)ccc2c1",
    "systemTested": "HEK-293T",
    "readoutUnit": "%",
    "reportedValue": 22
  }
]

Task: Looking for the measured Population Mitochondria Different-Phenotype (%) of CCC(=O)O[C@]1(C(=O)SCF)[C@H](C)C[C@H]2[C@@H]3C[C@H](F)C4=CC(=O)C=C[C@]4(C)[C@@]3(F)[C@@H](O)C[C@@]21C [FLUTICASONE PROPIONATE] , can you help?
Output: 60

====

- System: U2OS
- testName: Multiplex assay against U2OS
- Format: toxicity, cell-based
- conditionParameters: human, 24 h, 1 µM, compound concentration 1 uM, replicate 1
Population Tubulin-Different-Phenotype (%) listing for selected molecules.
Respond with the bare value in %.

These recorded examples may help you get a feel for the data.
[
  {
    "molecule": "Nc1ccc(C(=O)Nc2cccc(-c3nc(N4CCOCC4)c4oc5ncccc5c4n3)c2)cn1",
    "reportedValue": 51
  },
  {
    "molecule": "Cc1cc2c(cc1N1C(=O)c3cccc4c(CCCO)ccc(c34)C1=O)n(C)c(=O)n2C",
    "reportedValue": 10
  },
  {
    "molecule": "COc1ccc(NS(=O)(=O)c2sc3ccc(Cl)cc3c2C)cc1N1CCNCC1.Cl",
    "reportedValue": 6
  }
]

Task: Looking for the measured Population Tubulin-Different-Phenotype (%) of CC(C)N1CCC(C)(C)c2cc(C#Cc3ccc(C(=O)O)cc3)ccc21 , can you help?
Output: 12

Task: Another: O=C(O)c1ccc2cc(-c3ccc(O)c(C45CC6CC(CC(C6)C4)C5)c3)ccc2c1
Output: 10

Task: Another: CNC(=O)c1nn(C)c2c1C(C)(C)Cc1cnc(Nc3ccc(N4CCN(C)CC4)cc3)nc1-2
Output: 100

Task: Another: CCc1cc2c(cc1CC)CC(NC[C@H](O)c1ccc(O)c3[nH]c(=O)ccc13)C2
Output: 9

Task: Another: CCCn1c(=O)c2[nH]c(C34CC5CC(CC3C5)C4)nc2n(CCC)c1=O
Output: 10

Task: Another: CN(C)CCOc1ccc(-c2nc(-c3ccncc3)c(-c3ccc4c(c3)CC/C4=N\O)[nH]2)cc1
Output: 37

Task: Another: CCOc1cc2ncc(C#N)c(Nc3ccc(OCc4cccc(F)c4)c(Cl)c3)c2cc1NC(=O)/C=C/CN(C)C
Output: 17

Task: Another: Cc1cn(-c2cc(NC(=O)c3ccc4c(c3)CN(c3cncnc3)C[C@@H]4C)cc(C(F)(F)F)c2)cn1
Output: 42

Task: Another: CCC(=O)O[C@]1(C(=O)SCF)[C@H](C)C[C@H]2[C@@H]3C[C@H](F)C4=CC(=O)C=C[C@]4(C)[C@@]3(F)[C@@H](O)C[C@@]21C [FLUTICASONE PROPIONATE]
Output: 6

Task: Another: Nc1nc2c(c(N3CCNCC3)n1)CCC1=C2[C@@H]2CCCC[C@@H]2O1
Output: 3

Task: Another: COc1cc2c(NC3CCN(C(C)C)CC3)nc(N3CCC(F)(F)CC3)nc2cc1OCCCN1CCCC1
Output: 9

Task: Another: CCOc1cc(N2CCC(O)CC2)ccc1Nc1ncc2c(n1)N(C1CCCC1)CCC(=O)N2C
Output: 18

Task: Another: CC(=O)O[C@H]1C(=O)[C@@]2(C)[C@H]([C@H](OC(=O)c3ccccc3)[C@]3(O)C[C@H](OC(=O)[C@H](O)[C@@H](NC(=O)c4ccccc4)c4ccccc4)C(C)=C1C3(C)C)[C@]1(OC(C)=O)CO[C@@H]1C[C@@H]2O
Output: 35
